Provenance of the data: ChEMBL document CHEMBL5579898

test: Distribution coefficient, logD of compound in n-Octanol/PBS at pH 7.4 incubated for 30 mins under shaking condition by UHPLC-MS analysis; format: physicochemical
recordedMetric: logD at 0.5 h

Cc1sc2c(c1C)C(c1ccc(Cl)cc1)=N[C@@H](CC(=O)NCCCN1CCN(CCCNc3cccc4c3C(=O)N(C3CCC(=O)NC3=O)C4=O)CC1)c1nnc(C)n1-2 (some centres undefined) = 3.82
Cc1ncsc1-c1ccc([C@H](CC(=O)N2CCC(N3CCC(C#Cc4ccc(C(=O)N[C@H]5C(C)(C)[C@H](Oc6ccc(C#N)c(Cl)c6)C5(C)C)cc4)CC3)CC2)NC(=O)[C@@H]2C[C@@H](O)CN2C(=O)[C@@H](NC(=O)C2(F)CC2)C(C)(C)C)cc1 = 5.5
COc1ccc2c(c1)c(CC(=O)NCCN1CCN(C(=O)CCC(=O)N[C@H](C(=O)N3C[C@H](O)C[C@H]3C(=O)N[C@@H](C)c3ccc(-c4scnc4C)cc3)C(C)(C)C)CC1)c(C)n2C(=O)c1ccc(Cl)cc1 = 4.8
COc1ccc2c(c1)c(CC(=O)N1CCN(CCC(=O)N[C@H](C(=O)N3C[C@H](O)C[C@H]3C(=O)N[C@@H](C)c3ccc(-c4scnc4C)cc3)C(C)(C)C)CC1)c(C)n2C(=O)c1ccc(Cl)cc1 = 5.5
Cc1ncsc1-c1ccc([C@H](CC(=O)NCCCCCCCCCCC(=O)N[C@H]2C(C)(C)[C@H](Oc3ccc(C#N)c(Cl)c3)C2(C)C)NC(=O)[C@@H]2C[C@@H](O)CN2C(=O)[C@@H](NC(=O)C2(F)CC2)C(C)(C)C)cc1 = 4.9
Cc1ncsc1-c1ccc([C@H](C)NC(=O)[C@@H]2C[C@@H](O)CN2C(=O)[C@@H](NC(=O)COCCOCCOCC(=O)N[C@H](C(=O)N2C[C@H](O)C[C@H]2C(=O)N[C@@H](C)c2ccc(-c3scnc3C)cc2)C(C)(C)C)C(C)(C)C)cc1 = 3.9
COc1ccc2c(c1)c(CC(=O)NCCCCCCC(=O)N[C@H](C(=O)N1C[C@H](O)C[C@H]1C(=O)N[C@@H](C)c1ccc(-c3scnc3C)cc1)C(C)(C)C)c(C)n2C(=O)c1ccc(Cl)cc1 = 5.6
COc1ccc2c(c1)c(CC(=O)NCCN1CCN(CCOCCOCC(=O)N[C@H](C(=O)N3C[C@H](O)C[C@H]3C(=O)N[C@@H](C)c3ccc(-c4scnc4C)cc3)C(C)(C)C)CC1)c(C)n2C(=O)c1ccc(Cl)cc1 = 5.1
Cc1ncsc1-c1ccc([C@H](C)NC(=O)[C@@H]2C[C@@H](O)CN2C(=O)[C@@H](NC(=O)CN2CCN(C(=O)C[C@@H]3N=C(c4ccc(Cl)cc4)c4c(sc(C)c4C)-n4c(C)nnc43)CC2)C(C)(C)C)cc1 = 4.56

###

assay: Distribution coefficient, logD of compound in n-Octanol/PBS at pH 7.4 incubated for 30 mins under shaking condition by UHPLC-MS analysis; type: physicochemical
Non-standard residues stand in square brackets, D forms with d. Residues, ends and D or L forms follow the SMILES beside them. *: point of attachment. X1 = Fc1ccc(-c2csc(N3CCOCC3)n2)c(OCCOCCOCCN*)c1F; Dip = N[C@H](C(=O)O)C(c1ccccc1)c1ccccc1; Chg = N[C@H](C(=O)O)C1CCCCC1; NMeA = CN[C@@H](C)C(=O)O
recordedMetric: logD at 0.5 h

Use these answered entries as a reference point.
CN[C@@H](C)C(=O)N[C@H](C(=O)N1CCC[C@H]1C(=O)N[C@H](C(=O)NCCOCCOCCOc1c(-c2csc(N3CCOCC3)n2)ccc(F)c1F)C(c1ccccc1)c1ccccc1)C1CCCCC1 (H-[NMeA][Chg]P[Dip]-X1) = 5.1
N#Cc1ccc(O[C@H]2CC[C@H](NC(=O)c3ccc(N4CCC(CN5CCN(c6cc7c(cc6F)C(=O)N(C6CCC(=O)NC6=O)C7=O)CC5)CC4)nn3)CC2)cc1Cl (stereo not given in full) [BAVDEGALUTAMIDE] = 5.38
Cc1ncsc1-c1ccc([C@H](C)NC(=O)[C@@H]2C[C@@H](O)CN2C(=O)[C@@H](NC(=O)CCCCn2cc(CCCC(=O)N3CCN(C(=O)c4cc(Cc5n[nH]c(=O)c6ccccc56)ccc4F)CC3)nn2)C(C)(C)C)cc1 = 3

I: Cc1ncsc1-c1ccc(CNC(=O)[C@@H]2C[C@@H](O)CN2C(=O)[C@@H](NC(=O)COCCOCCOCCOCCOCCOCC(=O)N[C@H](C(=O)N2C[C@H](O)C[C@H]2C(=O)NCc2ccc(-c3scnc3C)cc2)C(C)(C)C)C(C)(C)C)cc1
II: Cc1ncsc1-c1ccc([C@H](C)NC(=O)[C@@H]2C[C@@H](O)CN2C(=O)[C@@H](NC(=O)CCCCCCCCCCC(=O)N2CCN(C(=O)c3cc(Cc4n[nH]c(=O)c5ccccc45)ccc3F)CC2)C(C)(C)C)cc1
Incoming: Return label of the item with the larger logD at 0.5 h. Candidates: I , II . Let me know the label of the one you choose.
Outgoing: II
(II: 5, I: 3)

###

assay: Distribution coefficient, logD of compound in n-Octanol/PBS at pH 7.4 incubated for 30 mins under shaking condition by UV-Vis spectroscopic analysis; type: physicochemical; conditions: n-octanol/PBS, pH 7.4
recordedMetric: logD at 0.5 h

Cn1c(=O)n(C)c2cc(CNCCOCCOCCNCC3CCN(c4ccc(C(=O)N[C@H]5CC[C@H](Oc6ccc(C#N)c(Cl)c6)CC5)nn4)CC3)ccc21 = 2.45
Cc1ncsc1-c1ccc(CNC(=O)[C@@H]2C[C@@H](O)CN2C(=O)[C@@H](NC(=O)COCCOCCOCCOCCOCCOCC(=O)N[C@H](C(=O)N2C[C@H](O)C[C@H]2C(=O)NCc2ccc(-c3scnc3C)cc2)C(C)(C)C)C(C)(C)C)cc1 = 3.09
Cn1c(=O)n(C)c2cc(CNCCOCCNCC3CCN(c4ccc(C(=O)N[C@H]5CC[C@H](Oc6ccc(C#N)c(Cl)c6)CC5)nn4)CC3)ccc21 = 3.25
O=C(COc1c(-c2csc(N3CCOCC3)n2)ccc(F)c1F)NCCOCCOCCOCCOCCNc1cccc2c1C(=O)N(C1CCC(=O)NC1=O)C2=O (stereo not drawn) = 2.82

1: Cc1ncsc1-c1ccc([C@H](C)NC(=O)[C@@H]2C[C@@H](O)CN2C(=O)[C@@H](NC(=O)COCCOCCOCC(=O)N[C@H](C(=O)N2C[C@H](O)C[C@H]2C(=O)N[C@@H](C)c2ccc(-c3scnc3C)cc2)C(C)(C)C)C(C)(C)C)cc1
2: CC(=O)c1c(C)c2cnc(Nc3ccc(N4CCN(CCOCCOCCOCCNC(=O)COc5cccc6c5C(=O)N(C5CCC(=O)NC5=O)C6=O)CC4)cn3)nc2n(C2CCCC2)c1=O (stereo not drawn)
Incoming: Given the two records 1 and 2 , choose the one whose logD at 0.5 h value is lower. Let me know the label of the one you choose.
Outgoing: 2
(2: 2.17, 1: 3.5)

###

assay: Kinetic solubility of the compound incubated for 60 mins under shaking condition by UHPLC-MS analysis; type: physicochemical; details: 1 h
recordedMetric: log(Kinetic_solubility)

Cc1ncsc1-c1ccc([C@H](C)NC(=O)[C@@H]2C[C@@H](O)CN2C(=O)[C@@H](NC(=O)CCCCCCOc2ccc3c(c2)c(C(=O)O)c(C)n3Cc2ccccc2)C(C)(C)C)cc1 = -5.8
O=C(COc1c(-c2csc(N3CCOCC3)n2)ccc(F)c1F)NCCOCCOCCOCCOCCNc1cccc2c1C(=O)N(C1CCC(=O)NC1=O)C2=O (stereo not given) = -4.28
Cc1ncsc1-c1ccc([C@H](C)NC(=O)[C@@H]2C[C@@H](O)CN2C(=O)[C@@H](NC(=O)CNCCOCCOc2c(-c3csc(N4CCOCC4)n3)ccc(F)c2F)C(C)(C)C)cc1 = -5.22
Cc1ncsc1-c1ccc([C@H](C)NC(=O)[C@@H]2C[C@@H](O)CN2C(=O)[C@@H](NC(=O)CCCCn2cc(CCCC(=O)N3CCN(C(=O)c4cc(Cc5n[nH]c(=O)c6ccccc56)ccc4F)CC3)nn2)C(C)(C)C)cc1 = -4.34
Cc1ncsc1-c1ccc([C@H](C)NC(=O)[C@@H]2C[C@@H](O)CN2C(=O)[C@@H](NC(=O)CCCCn2cc(CN3CCN(C(=O)C[C@@H]4N=C(c5ccc(Cl)cc5)c5c(sc(C)c5C)-n5c(C)nnc54)CC3)nn2)C(C)(C)C)cc1 = -4.68

###

assay: Distribution coefficient, logD of compound in n-Octanol/PBS at pH 7.4 incubated for 30 mins under shaking condition by UV-Vis spectroscopic analysis; type: physicochemical; settings: n-octanol/PBS, pH 7.4
recordedMetric: logD at 0.5 h

Cc1ncsc1-c1ccc([C@H](C)NC(=O)[C@@H]2C[C@@H](O)CN2C(=O)[C@@H](NC(=O)CCCCn2cc(CCCC(=O)N3CCN(C(=O)c4cc(Cc5n[nH]c(=O)c6ccccc56)ccc4F)CC3)nn2)C(C)(C)C)cc1 = 2.89
Cc1ncsc1-c1ccc([C@H](C)NC(=O)[C@@H]2C[C@H](O)CN2C(=O)[C@@H](NC(=O)COCCOCCOCC(=O)N[C@H](C(=O)N2C[C@@H](O)C[C@H]2C(=O)N[C@@H](C)c2ccc(-c3scnc3C)cc2)C(C)(C)C)C(C)(C)C)cc1 = 3.74
O=C1CCC(N2C(=O)c3cccc(NCCOCCOCCOCCn4cc(COc5ccc(N(C(=O)CCl)C(C(=O)NCCc6ccccc6)c6cccs6)cc5Cl)nn4)c3C2=O)C(=O)N1 (configuration not stated) = 3.92
Cc1ncsc1-c1ccc([C@H](C)NC(=O)[C@@H]2C[C@@H](O)CN2C(=O)[C@@H](NC(=O)CCCCn2cc(CN3CCN(C(=O)C[C@@H]4N=C(c5ccc(Cl)cc5)c5c(sc(C)c5C)-n5c(C)nnc54)CC3)nn2)C(C)(C)C)cc1 = 3.81
Cc1ncsc1-c1ccc(CNC(=O)[C@@H]2C[C@@H](O)CN2C(=O)[C@@H](NC(=O)COCCOCCOCC(=O)N[C@H](C(=O)N2C[C@H](O)C[C@H]2C(=O)NCc2ccc(-c3scnc3C)cc2)C(C)(C)C)C(C)(C)C)cc1 = 3.7
COc1cc(C(=O)NCCCCCCNC(=O)COc2c(-c3csc(N4CCOCC4)n3)ccc(F)c2F)ccc1NC(=O)[C@@H]1N[C@@H](CC(C)(C)C)[C@](C#N)(c2ccc(Cl)cc2F)[C@H]1c1cccc(Cl)c1F = 3.7
O=C(CCCCCCCCCCC(=O)N1CCN(C(=O)c2cc(Cc3n[nH]c(=O)c4ccccc34)ccc2F)CC1)NCCNc1cccc2c1C(=O)N(C1CCC(=O)NC1=O)C2=O (configuration not stated) = 3.48
